Tested on: SK-MEL-28 melanoma
procedureText: NCI-60 one-dose screen, 48 h (100 = growth as untreated, 0 = no growth, -100 = all killed)
conditionContext: 10 µM unless noted
The panel holds about 83,000 compounds, 20% with a hit somewhere; the sample as a whole holds those more often. Active and inactive are the calls of the source. The calls were made as follows: active = growth percent below 10; inactive = the rest.
molecules and their reported growth

{"molecule": "COc1ccc(C(=O)C[C@]2(O)C(=O)Nc3c(Cl)ccc(Cl)c32)cc1", "targetOrTestSystem": "SK-MEL-28 melanoma", "growth": "60.4% (inactive)"}
{"molecule": "COc1cc(/C=C/c2ccccc2)cc(OC)c1", "targetOrTestSystem": "SK-MEL-28 melanoma", "growth": "111% (inactive)"}
{"molecule": "COc1ccc(-c2nc(NCCO)[nH]c(=O)c2C#N)cc1", "targetOrTestSystem": "SK-MEL-28 melanoma", "growth": "108% (inactive)"}
{"molecule": "COc1ccc2nc(NCCCNCCO)c3sc4ccc(F)cc4c(=O)c3c2c1", "targetOrTestSystem": "SK-MEL-28 melanoma", "growth": "68.9% (inactive)"}
{"molecule": "Cc1ccc(-c2nc(N3CCN(CC(=O)Nc4ccc(Cl)cc4)CC3)c3ccccc3n2)cc1", "targetOrTestSystem": "SK-MEL-28 melanoma", "growth": "99.8% (inactive)"}
{"molecule": "COc1ccc(OC)c(/C=C2\\Oc3cc(OCCN4CCC(Cc5ccccc5)CC4)ccc3C2=O)c1", "targetOrTestSystem": "SK-MEL-28 melanoma", "growth": "89.5% (inactive)"}
{"molecule": "CC(C)(C)NC(=O)C(OC(=O)c1cccc(Cl)c1)c1ccc(Cl)cc1 (configuration not stated)", "targetOrTestSystem": "SK-MEL-28 melanoma", "growth": "105% (inactive)"}
{"molecule": "CCCCCCNC(=O)Oc1ccc(/C(=C(\\C)c2ccc(Cl)cc2)c2ccc(OCCN(CC)CC)cc2)cc1", "targetOrTestSystem": "SK-MEL-28 melanoma", "growth": "66% (inactive)"}
{"molecule": "CN1C(=O)CNC(=O)[C@H](NC(=O)c2nc3ccccc3cc2O)CSSC[C@H]1C(=O)NCCCc1nc2ccccc2cc1O", "targetOrTestSystem": "SK-MEL-28 melanoma", "growth": "61.9% (inactive)"}
{"molecule": "COc1ccc(-c2nc(NN)c3c(C)nn(-c4ccc(F)cc4)c3n2)cc1", "targetOrTestSystem": "SK-MEL-28 melanoma", "growth": "61.4% (inactive)"}
{"molecule": "c1ccc(Nc2cc(-c3cccnc3)[nH]n2)cc1", "targetOrTestSystem": "SK-MEL-28 melanoma", "growth": "105% (inactive)"}
{"molecule": "CC1Cc2c(ncn3c(-c4ccc(F)cc4)nnc23)N(C)c2ccccc21 (configuration not stated)", "targetOrTestSystem": "SK-MEL-28 melanoma", "growth": "85.4% (inactive)"}
{"molecule": "CN1C(=O)N(C)C2Nn3c(s/c(=C\\c4ccccc4)c3=O)=NC21 (configuration not stated)", "targetOrTestSystem": "SK-MEL-28 melanoma", "growth": "105% (inactive)"}
{"molecule": "Cc1cc(=O)[nH]c(=O)n1Cc1cn(-c2c3ccccc3nc3ccccc23)nn1", "targetOrTestSystem": "SK-MEL-28 melanoma", "growth": "75.6% (inactive)"}
{"molecule": "NCCCNc1nc2ccccc2c2c(=O)c3cc(F)cc(F)c3sc12", "targetOrTestSystem": "SK-MEL-28 melanoma", "growth": "-87.1% (active)"}
{"molecule": "COc1ccc(-c2nc3sc(-c4ccccc4)cn3n2)cc1", "targetOrTestSystem": "SK-MEL-28 melanoma", "growth": "67.6% (inactive)"}
{"molecule": "O=[N+]([O-])c1ccc(Cl)c(-c2cc(CCCCO)on2)c1", "targetOrTestSystem": "SK-MEL-28 melanoma", "growth": "107% (inactive)"}
{"molecule": "C/C(=C\\C(=O)c1ccc(Cl)cc1)c1ccc(Cl)cc1", "targetOrTestSystem": "SK-MEL-28 melanoma", "growth": "111% (inactive)"}
{"molecule": "NCCCNc1nc2ccc(Cl)cc2c2c(=O)c3cc(F)ccc3sc12", "targetOrTestSystem": "SK-MEL-28 melanoma", "growth": "103% (inactive)"}
{"molecule": "CN(C)CCN1CCN(c2ncccc2C2Nc3ccccc3-n3cccc32)CC1 (configuration not stated)", "targetOrTestSystem": "SK-MEL-28 melanoma", "growth": "105% (inactive)"}
{"molecule": "c1ccc2c(c1)Nc1ccncc1S2", "targetOrTestSystem": "SK-MEL-28 melanoma", "growth": "128% (inactive)"}
{"molecule": "COc1ccc(C(=O)/C=C/c2sc(Cl)nc2Cl)cc1", "targetOrTestSystem": "SK-MEL-28 melanoma", "growth": "53.2% (inactive)"}
